# System tested: OachGOBP2 (Orthaga achatina)
# Sequence (H6UEU3 entry or part of it): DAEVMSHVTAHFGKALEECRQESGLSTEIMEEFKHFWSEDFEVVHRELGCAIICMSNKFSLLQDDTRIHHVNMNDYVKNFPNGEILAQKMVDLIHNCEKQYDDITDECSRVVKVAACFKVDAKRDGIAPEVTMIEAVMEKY
Below: a set of entries, each annotated with reported Ki.
Provide only the numeric value, understood in µM.

CC(C)=CCC/C(C)=C/CC/C(C)=C/CO    7.33

Ki on OachGOBP2 (Orthaga achatina) for CCCC/C=C\CCCCCCCCCCOC(C)=O is 2.84

###

# System tested: UniProtKB H6UEU3
# Measurement notes: Binding of fluorescent probe 1-NPN to OachGOBP2 (Scatchard)
# Experimental conditions: 2 µM protein in 50 mM Tris HCl pH 7.4, Scatchard; read-out: dissociation constant (K1-NPN) to OachGOBP2
Property: pKd
Note on units: pKd is unitless, being -log10 of a concentration expressed in mol/L.

Simply: c1ccc(Nc2cccc3ccccc23)cc1 , UniProtKB H6UEU3, pKd = 5.31
